Molecular target: human DPP1 enzyme (Homo sapiens (Human))
Assay: Human DPP1 enzyme single-point percent inhibition testing (HL-60 lysate, H-Gly-Arg-AMC substrate)
Type: biochemical
Details: read-out: human DPP1 enzyme % inhibition @ 10 nM, 10 nM compound, 400 μM H-Gly-Arg-AMC, 10 min pre-incubation at 37° C.
QUANTITY_KIND: inhibition at 0.01 µM

Find inhibition at 0.01 µM (human DPP1 enzyme (Homo sapiens (Human))) for the entry `Cc1cn2cc(-c3ccc(C[C@@H](C#N)NC(=O)[C@@H](O)CN(C)C)cc3)cc2c(C)n1`
≤ 40%

What would you report for `CN(C)C[C@H](O)C(=O)N[C@H](C#N)Cc1ccc(-c2ccc3cnn(C4CCN(C)CC4)c3c2)cc1F` ?
≥ 66.7%

What would you report for `CCN1C(=O)Cc2ccc(-c3ccc(C[C@@H](C#N)NC(=O)[C@@H](O)CN(C)C)cc3)cc21` ?
≤ 40%

What would you report for `CCN1C(=O)Cc2ccc(-c3ccc(C[C@@H](C#N)NC(=O)[C@H](CN(C)C)OC)cc3)cc21` ?
≤ 40%

What would you report for `Cc1cn2cc(-c3ccc(C[C@@H](C#N)NC(=O)[C@@](C)(O)CN(C)C)c(F)c3)cc2c(C)n1` ?
40 to 66.7%

What would you report for `CN(C)C[C@H](O)C(=O)N[C@H](C#N)Cc1ccc(-c2ccc3c(c2)C2(CCN(C4COC4)CC2)OC3)cc1` ?
≤ 40%

What would you report for `CN(C)CCn1c(=O)oc2ccc(-c3ccc(C[C@@H](C#N)NC(=O)[C@@](C)(O)CN(C)C)cc3)cc21` ?
≥ 66.7%

---

Molecular target: human DPP1 enzyme (Homo sapiens (Human), UniProt P53634)
Sequence (P53634 25-134): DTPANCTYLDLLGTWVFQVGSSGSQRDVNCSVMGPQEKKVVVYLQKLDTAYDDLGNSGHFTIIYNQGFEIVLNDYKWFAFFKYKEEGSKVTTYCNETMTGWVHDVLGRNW
Sequence (P53634 231-394): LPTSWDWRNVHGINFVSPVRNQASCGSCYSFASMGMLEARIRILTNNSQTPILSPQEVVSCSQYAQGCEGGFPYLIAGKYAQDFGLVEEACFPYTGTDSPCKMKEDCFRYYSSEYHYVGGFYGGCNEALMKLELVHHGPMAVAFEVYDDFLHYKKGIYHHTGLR
Sequence (P53634 395-463): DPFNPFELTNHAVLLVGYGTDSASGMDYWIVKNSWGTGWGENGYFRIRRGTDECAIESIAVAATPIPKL
Test: Human DPP1 enzyme IC50 assay
Format: biochemical
Conditions: recombinant human DPP1, H-Gly-Arg-AMC substrate 400 μM
Assign IC50 to each entry below.

Can you look up the measured IC50 of `CN1CCN[C@@H](CC(=O)N[C@H](C#N)Cc2ccc(-c3ccc4oc(=O)n(C)c4c3)cc2)C1` for me?
≥ 15 nM

What would you report for Cc1cn2cc(-c3ccc(C[C@@H](C#N)NC(=O)[C@@](C)(N)C4CCC4)c(F)c3)cc2c(C)n1 [Compound 272B] ?
5 to 15 nM

What would you report for C[C@H](O)[C@@](C)(N)C(=O)N[C@H](C#N)Cc1ccc(-c2ccc3oc(=O)n(C)c3c2)cc1 [Compound 171D] ?
5 to 15 nM

What would you report for Cc1ccccc1CC(CN)C(=O)N[C@H](C#N)Cc1ccc(-c2ccc3oc(=O)n(C)c3c2)cc1 (some centres unmarked) ?
≥ 15 nM

What would you report for CC(CO)CC(N)C(=O)N[C@H](C#N)Cc1ccc(-c2ccc3oc(=O)n(C)c3c2)cc1 (some centres unmarked) ?
≥ 15 nM

---

Assign IC50 to each entry below.
Molecular target: active mouse DPP1 enzyme (Mus musculus (Mouse), UniProt P97821)
Sequence (P97821 25-134): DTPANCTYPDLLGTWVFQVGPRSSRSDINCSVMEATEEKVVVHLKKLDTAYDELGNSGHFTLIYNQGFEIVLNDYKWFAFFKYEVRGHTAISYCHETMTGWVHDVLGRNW
Sequence (P97821 231-393): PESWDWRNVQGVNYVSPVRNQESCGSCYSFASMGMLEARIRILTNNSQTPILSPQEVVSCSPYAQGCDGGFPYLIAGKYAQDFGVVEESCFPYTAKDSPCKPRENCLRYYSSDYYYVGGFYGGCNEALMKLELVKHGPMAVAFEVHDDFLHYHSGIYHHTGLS
Sequence (P97821 394-462): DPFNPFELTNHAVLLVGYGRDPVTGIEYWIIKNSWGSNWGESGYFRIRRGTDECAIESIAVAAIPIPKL
Assay: Mouse DPP1 enzyme IC50 assay
Assay type: biochemical
Conditions: active mouse DPP1, H-Gly-Arg-AMC substrate 400 μM

Can you look up the measured IC50 of `Cn1c(=O)oc2ccc(-c3ccc(C[C@@H](C#N)NC(=O)C[C@H](N)Cc4cccs4)cc3)cc21` for me?
≥ 20 nM

What would you report for CCC(N)CC(=O)N[C@H](C#N)Cc1ccc(-c2ccc3oc(=O)n(C)c3c2)cc1 (stereo partly drawn) ?
≥ 20 nM

What would you report for `CN[C@@H](C)C(=O)N[C@H](C#N)Cc1ccc(-c2ccc3oc(=O)n(C)c3c2)cc1` ?
≥ 20 nM

What would you report for CC(CN)C(=O)N[C@H](C#N)Cc1ccc(-c2ccc3oc(=O)n(C)c3c2)cc1 (stereo partly drawn) ?
≥ 20 nM

What would you report for `CN[C@H](C)C(=O)N[C@H](C#N)Cc1ccc(-c2ccc3oc(=O)n(C)c3c2)cc1` ?
≥ 20 nM

What would you report for `Cn1c(=O)oc2ccc(-c3ccc(C[C@@H](C#N)NC(=O)CCNC(=O)c4cccs4)cc3)cc21` ?
≥ 20 nM

What would you report for `CN(C)C[C@H](O)C(=O)N[C@H](C#N)Cc1ccc(-c2ccc3oc(=O)n(C)c3c2)cc1` ?
5 to 20 nM

What would you report for `N#Cc1ccc(-c2ccc(C[C@@H](C#N)NC(=O)C3(N)CCOCC3)c(I)c2)cc1` ?
≥ 20 nM

What would you report for `Cn1c(=O)oc2ccc(-c3ccc(C[C@@H](C#N)NC(=O)CCC#N)cc3)cc21` ?
≥ 20 nM

What would you report for CC(O)CNCC(=O)N[C@@H](C#N)Cc1ccc(-c2ccc3oc(=O)n(C)c3c2)cc1 (stereo partly drawn) ?
5 to 20 nM

What would you report for `Cn1c(=O)oc2ccc(-c3ccc(C[C@@H](C#N)NC(=O)COC(=O)c4ccco4)cc3)cc21` ?
≥ 20 nM

What would you report for `Cn1c(=O)oc2ccc(-c3ccc(C[C@@H](C#N)NC(=O)CNC(=O)c4ccco4)cc3)cc21` ?
≥ 20 nM

// data source = patent US20260008758A1
